// provenance: paper doi:10.1101/706168v1

Assay Target: HCN4 (Homo sapiens, UniProt Q9Y3Q4)
Sequence (Q9Y3Q4 1-1203): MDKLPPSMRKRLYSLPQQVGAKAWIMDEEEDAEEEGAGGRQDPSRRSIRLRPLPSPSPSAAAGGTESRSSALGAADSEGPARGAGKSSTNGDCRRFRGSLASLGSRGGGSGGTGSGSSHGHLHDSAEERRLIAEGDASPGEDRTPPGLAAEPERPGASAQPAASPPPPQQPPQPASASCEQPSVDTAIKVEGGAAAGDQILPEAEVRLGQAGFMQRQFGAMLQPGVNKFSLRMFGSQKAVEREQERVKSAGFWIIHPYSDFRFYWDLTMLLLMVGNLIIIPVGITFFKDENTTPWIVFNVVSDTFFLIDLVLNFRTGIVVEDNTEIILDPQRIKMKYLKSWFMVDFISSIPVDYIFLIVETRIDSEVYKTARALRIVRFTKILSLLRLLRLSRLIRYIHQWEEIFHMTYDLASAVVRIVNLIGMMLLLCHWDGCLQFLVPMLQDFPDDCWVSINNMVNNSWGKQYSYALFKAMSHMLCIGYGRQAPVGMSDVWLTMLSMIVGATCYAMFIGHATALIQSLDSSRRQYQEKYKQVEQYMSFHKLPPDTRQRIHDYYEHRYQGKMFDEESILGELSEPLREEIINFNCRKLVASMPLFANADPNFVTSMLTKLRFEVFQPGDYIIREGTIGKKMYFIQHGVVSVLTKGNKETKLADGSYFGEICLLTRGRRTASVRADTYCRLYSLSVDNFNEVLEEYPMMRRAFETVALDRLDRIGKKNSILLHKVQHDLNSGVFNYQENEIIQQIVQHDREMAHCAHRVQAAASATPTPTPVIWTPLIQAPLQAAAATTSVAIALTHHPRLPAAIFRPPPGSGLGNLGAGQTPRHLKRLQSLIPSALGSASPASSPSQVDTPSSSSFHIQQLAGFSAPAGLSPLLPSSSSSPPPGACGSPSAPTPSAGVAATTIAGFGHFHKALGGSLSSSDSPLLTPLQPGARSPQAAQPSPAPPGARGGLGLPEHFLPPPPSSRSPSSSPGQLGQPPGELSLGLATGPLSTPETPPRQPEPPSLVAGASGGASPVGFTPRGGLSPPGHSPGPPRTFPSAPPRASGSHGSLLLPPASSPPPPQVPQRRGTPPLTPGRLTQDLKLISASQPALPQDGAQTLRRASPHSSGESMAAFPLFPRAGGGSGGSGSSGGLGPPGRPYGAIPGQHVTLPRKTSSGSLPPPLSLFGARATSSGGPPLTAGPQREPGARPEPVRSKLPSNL
pIC50: −log10 of the molar value.

Compound	pIC50
O=C(c1ccccc1F)N1CCN(Cc2c(-c3ccc(Br)cc3)nc3ccccn23)CC1 [BAY 1000493]	< 4.52
